Molecular target: T1, human CD38 on cells (human, UniProt P28907 1-300)
T1 construct: also called native CD38; CD38 on LP-1 myeloma cells, CD38-transfected NIH-3T3 cells, blood leukocytes, CD38-transfected DC27.10 cells
Assay: binding assays of Example 4
Reported Property: binding result

>  <Binder>
Jk42 (VHH, His6-Myc-tagged monovalent VHH; also called I-9.1d; family 4) VHH: QVKLQESGGGLVQPGGSLRLSCVASERIFSRNTMGWYRQAPGKQRELVAYITSLGIANYADSVKGRFTISSDNAKNTVYLQMNNLKSEDTAVYNCNYWHYAAGRDYWGQGTQVTVSS

>  <Result>
binds

$$$$
>  <Binder>
MU1103 (VHH, His6-Myc-tagged monovalent VHH; also called s-24.1c; family 22) VHH: DVQLQASGGGLVQAGGSLRLSCAASEFTFDDYVIGWFRQAPGKEREGVSSISSDGSTYYADSVKGRFTISSDNAKNTVYLHMNSLKPEDTAVYYCAADVTLNPFTGWTTRSGPMYRYEYDYWGQGTQVTVSS

>  <Result>
binds

$$$$
>  <Binder>
Jk31 (VHH, His6-Myc-tagged monovalent VHH; also called I-8.2d; family 2) VHH: QVQLQESGGGLVQPGGSLRLSCAASGIILRLYDMGWYRQTPGKQRELVAEITSGGSTNYADSVKGRFTISRDNAENTVSLQMNSLKSGDTAVYYCNADHTFAGVYWGQGTQVTVSS

>  <Result>
binds

$$$$
>  <Binder>
Jk14 (VHH, His6-Myc-tagged monovalent VHH; also called I-9.1b; family 4) VHH: EVQLVESGGGLVQAGGSLRLSCVASERIFSRNTMGWYRQAPGKQRELVARIASLGITNYADSVKGRFTISSDNAKNTVYLQMNNLKPEDTAVYYCNYWHYAAGRDYWGQGTQVTVSS

>  <Result>
binds

$$$$
>  <Binder>
MU413 (VHH, His6-Myc-tagged monovalent VHH; also called I-15.2b; family 13) VHH: DVQLQASGGGLVQTGDSLTVSCAASGLSFTRYTMGWYREVPGKERREFVAAVKPAGDSAYYGASVKGRFTASRDNAKNTVTLQMNSLKPEDTAIYYCAAGFPVLTALHIADPDYWGQGTQVTVSP

>  <Result>
binds

$$$$

Could you now look at the following binder, please?
Req: Quick one: give measured binding result for Jk46 (VHH, His6-Myc-tagged monovalent VHH; also called family 7) VHH: QVQLQESGGGLVQAGGSLRLSCAASGRTFSSVAMGWFRQAPGKEREFVATINWSGGRTTYADSVKGRFTISRDSAKNTVYLQMNSLKPEDTAVYYCAADRFSVVAVEYDYWGQGTQVTVSS
Resp: binds
